Experiment: TIMS collisional cross section (CCS, N2) of the lipid ion; higher = larger ion cross section
Conditions: sample type: plasma; ionization mode: positive; one isomer drawn
Could you label it Met if measured TIMS collisional cross section is 300 Å² or higher, and Not met otherwise?

input: Check this compound for TIMS collisional cross section at or above 300 Å²: CC/C=C\C/C=C\C/C=C\CCCCCCCC(=O)OC[C@@H](COC(=O)CCCCCCC/C=C\CCCCCCC)OC(=O)CCCCCCC/C=C\C/C=C\CCCCC [TG 17:1_18:2_18:3] (ion (formula + adduct): [C56H96O6+NH4] 1+)
output: Met

input: # iterate: CC/C=C\C/C=C\C/C=C\CCCCCCCC(=O)OC[C@@H](COC(=O)CCCCCCC/C=C\CCCCCC)OC(=O)CCCCCCC/C=C\C/C=C\CCCCC [TG 16:1_18:2_18:3] (ion (formula + adduct): [C55H94O6+NH4] 1+)
output: Met

input: # iterate: CCCCCCCCCCCCC/C=C/[C@@H](O)[C@H](CO)NC(=O)CCCCCCCCCCCCCCCCCCCCCCC [Cer d18:1_24:0@] (ion (formula + adduct): [C42H83NO3+H] 1+)
output: Not met

input: # iterate: CC/C=C\C/C=C\C/C=C\C/C=C\C/C=C\C/C=C\CCC(=O)O[C@H](CO/C=C\CCCCCCCCCCCCCCCC)COP(=O)(O)OCCN [PE P- 18:0@_22:6] (ion (formula + adduct): [C45H78NO7P+H] 1+)
output: Not met

input: # iterate: CCCCC/C=C\C/C=C\CCCCCCCC(=O)OC[C@H](CO)OC(=O)CCCCCCC/C=C\C/C=C\CCCCC [DG 18:2_18:2_0:0] (ion (formula + adduct): [C39H68O5+NH4] 1+)
output: Not met

input: # iterate: CCCCC/C=C\C/C=C\C/C=C\CCCCC(=O)O[C@H](COC(=O)CCCCCCC/C=C\C/C=C\CCCCC)COP(=O)([O-])OCC[N+](C)(C)C [PC 18:2_18:3@] (ion (formula + adduct): [C44H78NO8P+H] 1+)
output: Not met

input: # iterate: CCCCC/C=C\C/C=C\C/C=C\CCCCC(=O)OC[C@@H](COC(=O)CCCCCCCCCCCCC)OC(=O)CCCCCCC/C=C\C/C=C\CCCCC [TG 14:0_18:2_18:3] (ion (formula + adduct): [C53H92O6+NH4] 1+)
output: Met

input: # iterate: CCCCCCC/C=C\CCCCCCCC(=O)O[C@@H](COC(=O)CCCCCCC/C=C\CCCCCCCC)COC(=O)CCCCCCCCCCCCCCC [TG 16:0_17:1_18:1] (ion (formula + adduct): [C54H100O6+NH4] 1+)
output: Met

input: # iterate: CCCCC/C=C\C/C=C\C/C=C\C/C=C\CCCC(=O)O[C@@H](CO)COC(=O)CCCCCCCCCCCCCCC [DG 16:0_20:4_0:0] (ion (formula + adduct): [C39H68O5+NH4] 1+)
output: Not met

---

For each of the compounds below, state its TIMS collisional cross section.
Test: TIMS collisional cross section (CCS, N2) of the lipid ion; higher = larger ion cross section
Settings: sample type: Liver; ionization mode: positive; one isomer drawn
Supply the numeric figure in Å², leaving out any unit text.

input: For CCCCCCCCCCCCCCC(=O)OC[C@H](COP(=O)(O)OC[C@H](N)C(=O)O)OC(=O)CCCCCCCCCCCCC [PS 15:0_14:0] (ion (formula + adduct): [C35H68NO10P+Na] 1+) , what is its reported TIMS collisional cross section?
output: 270.3

input: # iterate: CC/C=C\C/C=C\C/C=C\C/C=C\C/C=C\C/C=C\CCC(=O)O[C@H](COC(=O)CCCCCCCCCCCCCCCCCC)COP(=O)([O-])OCC[N+](C)(C)C [PC 19:0@_22:6] (ion (formula + adduct): [C49H86NO8P+H] 1+)
output: 300.5

input: # iterate: CC/C=C\C/C=C\C/C=C\C/C=C\C/C=C\C/C=C\CCC(=O)OC[C@@H](COC(=O)CCCCCCC/C=C\C/C=C\CCCCC)OC(=O)CCCCC/C=C\C/C=C\C/C=C\C/C=C\CCCCC [TG 18:2_22:4_22:6] (ion (formula + adduct): [C65H102O6+NH4] 1+)
output: 335.6

input: # iterate: CCCCCCCC/C=C\CCCCCCCCCC(=O)O[C@H](COC(=O)CCCCCCC/C=C\CCCCCCCC)COP(=O)(O)OCCN [PE 18:1_20:1@] (ion (formula + adduct): [C43H82NO8P+H] 1+)
output: 285.5

input: # iterate: CCCCC/C=C\C/C=C\CCCCCCCCCC(=O)OC[C@@H](COC(=O)CCCCCCCCCCCCC)OC(=O)CCCCCCC/C=C\CCCCCCCC [TG 14:0_18:1_20:2] (ion (formula + adduct): [C55H100O6+NH4] 1+)
output: 320.5

input: # iterate: CCCCC/C=C\C/C=C\CCCCCCCC(=O)O[C@H](COC(=O)CCCCCCC/C=C\CCCCCCC)COP(=O)([O-])OCC[N+](C)(C)C [PC 17:1_18:2] (ion (formula + adduct): [C43H80NO8P+H] 1+)
output: 285.6

input: # iterate: CC/C=C\C/C=C\C/C=C\C/C=C\C/C=C\C/C=C\CCC(=O)OC[C@@H](COC(=O)CCCCCCCCCCCCCCC)OC(=O)CC/C=C\C/C=C\C/C=C\C/C=C\C/C=C\C/C=C\CC [TG 16:0_22:6_22:6] (ion (formula + adduct): [C63H98O6+NH4] 1+)
output: 331.6

input: # iterate: CCCCC/C=C\C/C=C\CCCCCCCC(=O)OC[C@@H](COC(=O)CCCCCCCCCCCCC)OC(=O)CCCCCCC/C=C\CCCCCCCC [TG 14:0_18:1_18:2] (ion (formula + adduct): [C53H96O6+NH4] 1+)
output: 312.9

---

Experiment: TIMS collisional cross section (CCS, N2) of the lipid ion; higher = larger ion cross section
Settings: sample type: Human plasma; ion (formula + adduct): [C46H82NO8P+HCOO] 1-; ionization mode: negative; one isomer drawn
value.type: TIMS collisional cross section (Å²)
Supply the numeric figure in Å², leaving out any unit text.

input: For CC/C=C\C/C=C\C/C=C\C/C=C\C/C=C\CCCC(=O)O[C@H](COC(=O)CCCCCCCCCCCCCCCCC)COP(=O)([O-])OCC[N+](C)(C)C [PC 18:0_20:5] , what is its reported TIMS collisional cross section?
output: 299.5

input: # iterate: `CCCCC/C=C\C/C=C\C/C=C\CCCCCCC(=O)O[C@H](COC(=O)CCCCCCC/C=C\C/C=C\CCCCC)COP(=O)([O-])OCC[N+](C)(C)C`
output: 299.2

input: # iterate: CC/C=C\C/C=C\C/C=C\C/C=C\C/C=C\CCCC(=O)O[C@H](COC(=O)CCCCCCCCCCCCCCCCC)COP(=O)([O-])OCC[N+](C)(C)C [PC 18:0@_20:5]
output: 301.2

input: # iterate: CCCCC/C=C\C/C=C\C/C=C\C/C=C\CCCC(=O)O[C@H](COC(=O)CCCCCCC/C=C\CCCCCCCC)COP(=O)([O-])OCC[N+](C)(C)C [PC 18:1_20:4]
output: 298.3

input: # iterate: CCCCC/C=C\C/C=C\C/C=C\C/C=C\CCCC(=O)O[C@H](COC(=O)CCCCCCC/C=C\CCCCCCCC)COP(=O)([O-])OCC[N+](C)(C)C [PC 18:1@_20:4]
output: 298.3

---

Test: TIMS collisional cross section (CCS, N2) of the lipid ion; higher = larger ion cross section
Conditions: sample type: Liver; ionization mode: positive; one isomer drawn
Could you label it T if measured TIMS collisional cross section is 300 Å² or higher, and F otherwise?

input: Check this compound for TIMS collisional cross section at or above 300 Å²: CC/C=C\C/C=C\C/C=C\C/C=C\C/C=C\CCCC(=O)O[C@H](COC(=O)CCCCCCC/C=C\CCCCCC)COP(=O)(O)OCCN [PE 16:1_20:5@] (ion (formula + adduct): [C41H70NO8P+H] 1+)
output: F

input: # iterate: CC/C=C\C/C=C\C/C=C\C/C=C\C/C=C\CCCC(=O)OC[C@@H](COC(=O)CCCCCCCCCCCCC)OC(=O)CCCCCCC/C=C\C/C=C\CCCCC [TG 14:0_18:2_20:5] (ion (formula + adduct): [C55H92O6+NH4] 1+)
output: T

input: # iterate: CCCCC/C=C\C/C=C\CCCCCCCC(=O)OC[C@@H](COC(=O)CCCCCCC/C=C\CCCCCC)OC(=O)CCCCCCC/C=C\C/C=C\CCCCC [TG 16:1_18:2_18:2] (ion (formula + adduct): [C55H96O6+NH4] 1+)
output: T

input: # iterate: CCCCCCCC/C=C\CCCCCCCC(=O)OC[C@H](COC(=O)CCCCCCCCCCCCCCCCCCCCC)OC(=O)CCCCCCCCCCCCCCCCCC [TG 18:1_19:0_22:0] (ion (formula + adduct): [C62H118O6+NH4] 1+)
output: T

input: # iterate: CCCCCCCC/C=C\CCCCCCCCCCCCCC(=O)OC[C@@H](O)COP(=O)([O-])OCC[N+](C)(C)C [LPC 24:1] (ion (formula + adduct): [C32H64NO7P+H] 1+)
output: F

input: # iterate: CC/C=C\C/C=C\C/C=C\C/C=C\C/C=C\C/C=C\CCC(=O)O[C@H](COC(=O)CCCCCCC/C=C\CCCCCC)COP(=O)([O-])OCC[N+](C)(C)C [PC 16:1_22:6] (ion (formula + adduct): [C46H78NO8P+H] 1+)
output: F

input: # iterate: CCCCC/C=C\C/C=C\C/C=C\C/C=C\CCCCCC(=O)OC[C@H](COP(=O)(O)OCCN)OC(=O)CCCCCCCCCCCCCCCCC [PE 22:4_18:0] (ion (formula + adduct): [C45H82NO8P+H] 1+)
output: F

input: # iterate: CCCCCCCCCCCCCCCCCCCCCC(=O)OC[C@@H](COC(=O)CCCCCCCCCCCCCCCCC)OC(=O)CCCCCCCCCCCCCCCCCCCCC [TG 18:0_22:0_22:0] (ion (formula + adduct): [C65H126O6+NH4] 1+)
output: T
